Read-out: Apoptosis regulator Bcl-2 (Homo sapiens) (UniProt P10415)
Sequence (P10415 whole entry, looked up): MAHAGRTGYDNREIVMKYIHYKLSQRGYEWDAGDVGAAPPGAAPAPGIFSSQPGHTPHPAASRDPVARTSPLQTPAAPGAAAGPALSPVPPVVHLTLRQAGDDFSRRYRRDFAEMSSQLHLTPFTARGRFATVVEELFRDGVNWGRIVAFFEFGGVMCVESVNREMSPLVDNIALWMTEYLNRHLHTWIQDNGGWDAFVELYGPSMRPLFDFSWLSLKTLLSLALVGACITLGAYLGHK
Test: LTEA_HepaRG_BCL2: Life Technologies and Expression Analysis (LTEA) Assay for Bcl-2 gene using HepaRG (AID 2283475);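 note: BCL2 transcript by TaqMan qRT-PCR normalised to ACTB GAPDH and POLR2A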
Conditions: mRNA level, 48 h; actives raise or lower the signal
Calls of active or inactive are those of the source. Rule for the calls: active = hit-call score of the fitted dose curve at least 0.9, where 1 is the maximum; inactive = score below 0.9.
Possible outcomes: y (active), n (inactive)

> print(dat)
                                    compound  assigned.category
 1  C=CC1(C)OC(=O)N(c2cc(Cl)cc(Cl)c2)C1=O (configuration not stated)                  n
 2  C=CCC1=C(C)[C@@H](OC(=O)[C@@H]2[C@@H](C=C(C)C)C2(C)C)CC1=O                  n
 3              CON(C)C(=O)Nc1ccc(Cl)c(Cl)c1                  n
 4      CCOP(=S)(OCC)SCn1c(=O)oc2cc(Cl)ccc21                  n
 5        Fc1ccc(Oc2ccnc3cc(Cl)cc(Cl)c23)cc1                  n
 6                O=C(O)COc1nc(Cl)c(Cl)cc1Cl                  n
 7                     Cc1cc(Cl)ccc1OCC(=O)O                  n
 8                 COC(=O)C=C(C)OP(=O)(OC)OC                  n
 9              CCCCOC(=O)c1ccccc1C(=O)OCCCC                  n
10  Cc1ccc(-c2c(Cl)nc(C#N)n2S(=O)(=O)N(C)C)cc1                  y
11  COC(=O)N(OC)c1ccccc1COc1ccn(-c2ccc(Cl)cc2)n1                  y
12  N#Cc1nn(-c2c(Cl)cc(C(F)(F)F)cc2Cl)c(N)c1S(=O)C(F)(F)F (configuration not stated)                  y
13  COc1cnc(OC)n2nc(NS(=O)(=O)c3c(OCC(F)F)cccc3C(F)(F)F)nc12                  n
14  CCc1nn(C)c(C(=O)NCc2ccc(C(C)(C)C)cc2)c1Cl                  y
15  CCCN(CCC)c1c([N+](=O)[O-])cc(S(N)(=O)=O)cc1[N+](=O)[O-]                  n
16                    COC(=O)c1ccccc1C(=O)OC                  n
17  CCCCC(CC)COC(=O)c1ccccc1C(=O)OCC(CC)CCCC (configuration not stated)                  n
